Data provenance: ChEMBL document CHEMBL1201862

Please respond with reported GI50 for every item in the list.

Q) Form entry - test system: HCT-15; read-out: GI50; compound: O=c1[nH]c(=O)n(C2OC(CO)C(O)C2O)cc1Oc1ccccc1 (stereo not drawn)
A) > 100 µM

Q) Form entry - test system: HCT-15; read-out: GI50; compound: CC(C)(C)N1C(=O)c2ccccc2C1(O)C(F)(F)F (stereo not drawn)
A) > 100 µM

Q) Form entry - test system: HCT-15; read-out: GI50; compound: C=C[C@H]1CN2CCc3c([nH]c4c([C@H]5CCCN5C)c(O)ccc34)[C@@H]2C[C@@H]1C[C@H]1c2[nH]c3ccccc3c2CCN1C
A) 0.899 µM
